- Target desc: human HAQ STING isoform (hSTING HAQ) (Homo sapiens, UniProt Q86WV6, G230A/H232R/R293Q/R71H)
- Construct: THP1 cells express the naturally occurring human HAQ STING isoform (hSTING HAQ); host or cells: THP1
- Sequence (Q86WV6 whole entry R71H/G230A/H232R/R293Q, canonical isoform): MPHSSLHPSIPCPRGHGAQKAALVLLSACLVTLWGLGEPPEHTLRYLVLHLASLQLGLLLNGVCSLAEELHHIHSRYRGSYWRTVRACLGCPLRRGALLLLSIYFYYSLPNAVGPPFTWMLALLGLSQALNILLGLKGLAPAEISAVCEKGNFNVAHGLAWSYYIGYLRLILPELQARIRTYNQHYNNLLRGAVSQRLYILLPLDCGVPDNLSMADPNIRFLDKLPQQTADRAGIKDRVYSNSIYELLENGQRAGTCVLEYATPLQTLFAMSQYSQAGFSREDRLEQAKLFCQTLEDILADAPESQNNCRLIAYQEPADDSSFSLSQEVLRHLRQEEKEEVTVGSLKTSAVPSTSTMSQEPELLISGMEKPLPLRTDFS
- Assay summary: IFN-β mRNA level in THP1 cells (qPCR, STING agonist cellular activity)
- Type: cell-based
- Assay setup: compound at 3.6 μM, 2 hrs, IFNβ expression normalized against GAPDH by the 2^-ΔΔCT method, DMSO = 1.0
Hi, to clarify the labels: Condition met covers Relative mRNA INFβ/GAPDH THP 1 from 300 upward, Condition not met covers anything below 300.

- Molecule: "COc1cc(CN(Cc2cn3c4c(c(F)c(F)cc4c2=O)OCC3C)[C@H]2CCCN(c3ccc(N)nc3)C2)c(Cl)cn1 (stereo partly shown)"
  Class label: "Condition met"
- Molecule: "COC(=O)c1cc(CN(Cc2cn3c4c(c(F)c(F)cc4c2=O)OCC3)[C@H]2CCCN(c3cnccn3)C2)ccn1"
  Class label: "Condition not met"
- Molecule: "Cc1cc(CN(Cc2cn3c4c(c(F)c(F)cc4c2=O)SCC3)[C@H]2CCCN(c3cnccn3)C2)ccn1"
  Class label: "Condition not met"
- Molecule: "Cc1ccc(N2CCC[C@H](N(Cc3ccnc(C)c3)Cc3cn4c5c(c(F)c(F)cc5c3=O)OCC4C)C2)cn1 (stereo partly shown)"
  Class label: "Condition met"
- Molecule: "Cc1cc(CN(Cc2cn3c4c(c(F)c(F)cc4c2=O)OCC3C)[C@H]2CCCN(c3cccnc3)C2)ccn1 (stereo partly shown)"
  Class label: "Condition met"
- Molecule: "COc1cc(CN(Cc2cn3c4c(c(F)c(F)cc4c2=O)OC2(CCC2)C3)[C@H]2CCCN(c3ccc(N)nc3)C2)ccn1"
  Class label: "Condition met"
- Molecule: "Nc1ccc(N2CCC[C@H](N(Cc3ccncc3Cl)Cc3cn4c5c(c(F)c(F)cc5c3=O)OCC4)C2)cn1"
  Class label: "Condition met"
